Measured Target: Serine/threonine-protein kinase Nek2 (Homo sapiens)
Sequence (P51955 whole entry): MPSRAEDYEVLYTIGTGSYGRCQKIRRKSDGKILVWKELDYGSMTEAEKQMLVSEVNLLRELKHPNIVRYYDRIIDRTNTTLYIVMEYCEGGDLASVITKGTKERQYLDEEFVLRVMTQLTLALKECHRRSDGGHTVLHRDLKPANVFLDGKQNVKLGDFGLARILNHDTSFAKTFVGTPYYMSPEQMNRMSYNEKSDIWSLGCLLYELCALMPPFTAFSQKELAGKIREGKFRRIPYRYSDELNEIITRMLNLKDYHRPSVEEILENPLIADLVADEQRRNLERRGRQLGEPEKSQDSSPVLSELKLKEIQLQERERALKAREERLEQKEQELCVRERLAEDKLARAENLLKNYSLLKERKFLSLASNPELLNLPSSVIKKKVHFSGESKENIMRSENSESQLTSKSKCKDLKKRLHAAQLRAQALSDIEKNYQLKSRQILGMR
Study the reported IC50 values for Serine/threonine-protein kinase Nek2 (Homo sapiens) given below; they originate from different publications.
Write the answer as a number in µM, unit excluded.

COc1ccc2c(c1)C(=O)N(c1nc(C(=O)Nc3cnccc3N3CCNCC3)cs1)C2 | 9.5

# input Quick one: IC50 for COC1OC(=O)c2c(O)c(O)c(O)c(C)c21 (racemic) ?
# output 11.8

# input Further, for O=C1c2oc(-c3ccc(Cl)cc3)cc2Cc2cc(N3CCNCC3)ccc2N1Cc1ccccc1-c1cccnc1 ?
# output 13

# input Next record, please: COc1ccc2cc(-c3n[nH]c4cccnc34)[nH]c2c1
# output 3.22

* * *

Measured Target: Serine/threonine-protein kinase Nek2 (Homo sapiens, UniProt P51955)
Sequence (P51955 whole entry): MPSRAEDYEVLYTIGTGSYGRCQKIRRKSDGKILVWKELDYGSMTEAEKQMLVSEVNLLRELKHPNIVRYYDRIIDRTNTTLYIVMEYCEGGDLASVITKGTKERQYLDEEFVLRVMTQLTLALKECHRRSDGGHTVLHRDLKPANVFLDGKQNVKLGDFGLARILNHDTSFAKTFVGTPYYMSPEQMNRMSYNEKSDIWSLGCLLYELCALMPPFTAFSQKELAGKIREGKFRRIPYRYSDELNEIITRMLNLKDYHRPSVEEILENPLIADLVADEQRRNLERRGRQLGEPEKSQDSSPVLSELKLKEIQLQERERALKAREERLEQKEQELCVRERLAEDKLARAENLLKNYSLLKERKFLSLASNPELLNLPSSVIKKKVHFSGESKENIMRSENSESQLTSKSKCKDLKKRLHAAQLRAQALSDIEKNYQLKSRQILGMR
Note to self: these molecules have IC50 reported for Serine/threonine-protein kinase Nek2 (Homo sapiens, UniProt P51955) in various publications.

Sample records with IC50:
CC(=O)c1ccc(N2CCN(C(=O)CN3CC[C@@H](C(=O)Nc4ccc(O)c(Cl)c4)C3)CC2)cc1 | > 30 µM
FC(F)(F)CNc1nc(Nc2ccc3cn[nH]c3c2)nc2ccoc12 | > 10 µM
Oc1cccc(Nc2ccnc3[nH]c4ccccc4c23)c1 | > 10 µM

# input State its IC50 on Serine/threonine-protein kinase Nek2 (Homo sapiens, UniProt P51955): CCN(Cc1cc(Nc2nc(C)cn3c(-c4cn[nH]c4)cnc23)sn1)C(C)(C)CO
# output > 0.1 µM

# input What do you have for Cc1nc[nH]c1/C=C1\C(=O)Nc2ccc(C(=O)CCl)cc21 ?
# output 0.02 µM
